The reader will find reported % Phosphatase Activity (compared to DMSO) PRL-3 values listed item by item below.
# assaySystem: recombinant PRL-3 (Homo sapiens, UniProt O75365)
# Construct: 6xHis (N, cleaved yes); made in house; host or cells: E. coli One Shot BL21 Star
# Sequence (O75365 whole entry): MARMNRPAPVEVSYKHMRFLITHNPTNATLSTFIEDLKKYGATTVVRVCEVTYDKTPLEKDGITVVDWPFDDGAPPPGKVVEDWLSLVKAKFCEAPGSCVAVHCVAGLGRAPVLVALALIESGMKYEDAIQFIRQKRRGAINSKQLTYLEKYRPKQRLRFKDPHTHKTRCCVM
# experimentSummary: In vitro phosphatase assay (DiFMUP hydrolysis), PRL-3; also: test concentration or dose not given here
# Assay type: biochemical
# conditionsUsed: FDA-approved drug screen; compared to DMSO
Where a name gives a salt, the structure may show the parent alone.
reportedProperty: % Phosphatase Activity (compared to DMSO) PRL-3 (%)

compound	reportedValue
CS(=O)(=O)c1ccc([C@@H](O)[C@@H](CF)NC(=O)C(Cl)Cl)cc1	75
Nc1nc(F)nc2c1ncn2[C@@H]1O[C@H](CO)[C@@H](O)[C@@H]1O	94
O=C1NC(=O)C(c2ccccc2)(c2ccccc2)N1 [Phenytoin sodium]	68
NS(=O)(=O)c1cc2c(cc1Cl)N=CNS2(=O)=O [Chlorothiazide]	76
CCC[C@@H]1C[C@@H](C(=O)N[C@@H]([C@H]2O[C@H](SC)[C@H](OP(=O)(O)O)[C@@H](O)[C@H]2O)[C@H](C)Cl)N(C)C1 [Clindamycin Phosphate]	88
CN1CCN(c2ccc3nc(-c4c(N)c5c(F)cccc5[nH]c4=O)[nH]c3c2)CC1	74
C[C@H](CCC(=O)O)[C@H]1CC[C@H]2[C@@H]3CC[C@@H]4C[C@H](O)CC[C@]4(C)[C@H]3CC[C@]12C	73
CCN(CC)CCOC(=O)c1ccc(N)cc1 [Procaine HCl]	92
NC(=O)[C@@H](CCC(F)(F)F)N(Cc1ccc(-c2ncon2)cc1F)S(=O)(=O)c1ccc(Cl)cc1	73
Cc1ccc(Nc2nccc(N(C)c3ccc4c(C)n(C)nc4c3)n2)cc1S(N)(=O)=O.Cl [Pazopanib HCl]	82
CCc1c(Cl)c(O)c(Cl)c(O)c1C(=O)O[C@H]1[C@H](O)[C@H](OC)[C@H](OC/C2=C\C=C\C[C@H](O)/C(C)=C/[C@H](CC)[C@@H](O[C@@H]3OC(C)(C)[C@@H](OC(=O)C(C)C)[C@H](O)[C@@H]3O)/C(C)=C/C(C)=C/C[C@@H]([C@@H](C)O)OC2=O)O[C@@H]1C	62
CC(=O)OCC(=O)[C@@]1(O)[C@H](C)C[C@H]2[C@@H]3CCC4=CC(=O)C=C[C@]4(C)[C@@]3(F)[C@@H](O)C[C@@]21C [Dexamethasone Acetate]	86
CCCCOC(=O)c1ccc(N)cc1	80
Cl.NCCS [Cysteamine HCl]	70
C=CCNC1=C2C[C@@H](C)C[C@H](OC)[C@H](O)[C@@H](C)/C=C(\C)[C@H](OC(N)=O)[C@@H](OC)/C=C\C=C(/C)C(=O)NC(=CC1=O)C2=O	81
CC(C)c1c(C(=O)Nc2ccccc2)c(-c2ccccc2)c(-c2ccc(F)cc2)n1CC[C@@H](O)C[C@@H](O)CC(=O)O	74
O=NN(CCCl)C(=O)NC1CCCCC1	94
CCOC(=O)C1=C(COCCN)NC(C)=C(C(=O)OC)C1c1ccccc1Cl.O=S(=O)(O)c1ccccc1 (stereo not drawn) [Amlodipine besylate (Norvasc)]	168
Oc1cc(O)c(Cl)cn1	94
O=c1[nH]cc(F)c(=O)[nH]1	75
COc1ccc2c(c1)c(CC(=O)O)c(C)n2C(=O)c1ccc(Cl)cc1	71
CCCCN1CCCC[C@H]1C(=O)Nc1c(C)cccc1C [Levobupivacaine HCl]	72
O=C1C2CC3CC1CC(O)(C3)C2	86
CN[C@@H]1[C@H](O[C@H]2[C@H](O[C@H]3[C@H](O)[C@@H](O)[C@H](NC(=N)N)[C@@H](O)[C@@H]3NC(=N)N)O[C@@H](C)[C@]2(O)CO)O[C@@H](CO)[C@H](O)[C@H]1O [Dihydrostreptomycin sulfate]	110
